- Tested on: PC-3 prostate
- assay-name: NCI tumour cell line growth inhibition, 48 h
property-label: TGI

Recall and state the measured TGI for CC(NC(=O)OCc1ccccc1)NC(=O)OC(C)(C)C (stereo not given) .
> 100 µM

Respond only with TGI recorded for COc1cccc(Nc2nc(C)c([N+](=O)[O-])c(Nc3cccc(OC)c3)n2)c1
> 100 µM

====

# Lookup of reported TGI keyed by entry
- System: TK-10 renal
- assay-name: NCI tumour cell line growth inhibition, 48 h
Your answer is read as µM, so omit the unit and give the number.

# compound, TGI, µM
measured = [
    ("CCC1CN2CCc3cc(OC)c(OC)cc3C2CC1CC1c2cc(OC)c(OC)cc2CCN1C(=O)C(N)Cc1ccccc1 (centres undefined)", 8.53),
]

Please respond with reported TGI (system TK-10 renal) for Cc1ccc(/C(=C/C=C(C#N)C#N)Sc2ccc(Cl)cc2)cc1 .
7.31

====

- Tested on: MDA-N
- assay-name: NCI tumour cell line growth inhibition, 48 h
property-label: TGI

# molecular-string, TGI
records = [
    ("C[C@]12CC[C@H]3[C@@H](CCC4=CC(=O)CC[C@@H]43)[C@@H]1CC[C@]2(O)C(N)=O", "> 100 µM"),
]

In one line, give reported TGI of the entry [O-][n+]1nc(N2CCOCC2)nc2ccccc21 .
> 100 µM

For the molecule CCOC(=O)C1(CO)CSCCSC1 , give its measured TGI value.
> 100 µM

====

- Test system: HCC-2998 colon
- assay-name: NCI tumour cell line growth inhibition, 48 h
Documented TGI across a set of compounds

# compound, TGI
data = [
    ("Cc1[nH]c(=O)[nH]c(=O)c1/C=C/C(=O)NC(CO)CC(C)C (configuration not stated)", "> 375 µM"),
    ("CC12CCCC(O)C1CCC1=CC3(CCC12)SCCS3 (configuration not stated)", "> 10 µM"),
    ("O=C1CSC(c2ccccc2)N1c1nc2cc3sc(N4C(=O)CSC4c4ccccc4)nc3cc2s1 (configuration not stated)", "> 100 µM"),
]

Fetch value of TGI on HCC-2998 colon for CC(=O)C(C(=O)c1ccc(C)cc1)[C@@H]1OC(C)(C)O[C@@H]1[C@H]1COC(C)(C)O1 (some centres not stated) .
> 53.4 µM

State the measured TGI (HCC-2998 colon) of COc1ccc(C(=O)c2cc(C)c(OC)c(C)c2)c(OC)c1N(C(=O)C(Cl)Cl)C(=O)C(Cl)Cl
> 41.2 µM

GET TGI where system = HCC-2998 colon and item = CCCCCCCCCCCCCCCCP(=O)(O)OCC(N)C(=O)O (configuration not stated)
> 100 µM

Report TGI under test system HCC-2998 colon for CCc1[nH]c(=O)nc(N)c1-c1ccc(N2CCCCC2)c([N+](=O)[O-])c1 .
> 100 µM

// fetch TGI; item: Nc1cc(Cl)cc2cc(Cl)cnc12 ; system: HCC-2998 colon
> 100 µM

Enter measured TGI, system HCC-2998 colon, for the compound shown: Cn1c(-c2cccs2)cc(-c2cccs2)c1-c1cccs1
> 100 µM

State TGI (HCC-2998 colon) of NCc1ccc(-c2ccc(CN)s2)s1 .
> 100 µM

Enter TGI (test system HCC-2998 colon) for NC1=NN(c2ccccc2)C(=O)C1C(=O)CCC(=O)Nc1cccc(C(F)(F)F)c1 (configuration not stated)
> 100 µM

GET TGI | system: HCC-2998 colon | item: CC(=O)c1c(-c2ccc(Cl)cc2)c(-c2ccc(Cl)cc2)n[nH]c1=O
> 100 µM

====

- System: SN12C renal
- assay-name: NCI tumour cell line growth inhibition, 48 h
property-label: TGI

Solved entries (count: 5):
# compound, experimental-target, TGI
records = [
    ("O=C(CCl)Nc1ccc(Cl)cc1", "SN12C renal", "22.9 µM"),
    ("CCOC(=O)/C(C#N)=C/Nc1c(C)n(C)n(-c2ccccc2)c1=O", "SN12C renal", "> 100 µM"),
    ("CC12CCCC(O)C1CCC1=CC3(CCC12)SCCS3 (configuration not stated)", "SN12C renal", "> 10 µM"),
    ("COc1ccc(N2C(=O)C3c4[nH]c5ccc(C)cc5c4C4CCC(C(C)(C)C)CC4C3C2=O)cc1 (configuration not stated)", "SN12C renal", "> 100 µM"),
    ("CCc1[nH]c(=O)nc(N)c1-c1ccc(N2CCCCC2)c([N+](=O)[O-])c1", "SN12C renal", "> 100 µM"),
]

Now take the following compound into account.
Recall the reported TGI of C[C@]12CCC(O)CC1=CC[C@@H]1[C@@H]2CC[C@]2(C)C(O)[C@H](n3ccnc3)C[C@@H]12 (some centres not stated) on SN12C renal and write it down.
> 100 µM

====

The following compounds are shown together with reported TGI values.
- Tested on: XF 498 CNS
- assay-name: NCI tumour cell line growth inhibition, 48 h

Worked examples, 2 compounds total:
# compound, TGI
records = [
    ("Cc1ccc(S(=O)(=O)n2c(-c3ccccc3)c(-c3ccccc3)c3ccccc32)cc1", "> 100 µM"),
    ("O=C(O)CP(=S)(S)c1ccccc1 (stereo not drawn)", "> 100 µM"),
]

// moving on: another record for TGI
Quote TGI with test system XF 498 CNS for Cn1cc(C(=O)c2ccccc2)ccc1=O
> 100 µM

====

Catalogue of compounds with associated TGI
- Test system: SNB-19 CNS
- assay-name: NCI tumour cell line growth inhibition, 48 h

Provide one value: measured TGI of NC(CSS(=O)(=O)O)=NC1CC2CCC1C2 (stereo not drawn)
> 100 µM

Name the recorded TGI of the item COC(=O)c1ccccc1/C=C1\Cc2c(C)c3c(c(C)c2C1=O)CCC3 in your answer.
> 100 µM

// Input: COc1ccc(C2C(C(=O)O)=C(CO)Oc3cc4c(cc32)OCO4)cc1 (stereo not drawn) . Output its TGI only.
> 100 µM

Return TGI (reported value) for this compound: COc1cc(NC(=O)c2cc(O)c(CC=C(C)C)c(O)c2)cc2c1O[C@]1(C)CC[C@@H](O)C(C)(C)[C@H]1C2
21 µM

Return reported TGI. Input compound: CCC#CC[C@H]1C/C=C2/C(=O)C=C[C@@H]2C/C=C\CCCC(=O)O1
7.02 µM

For the compound CC(=O)C(C(=O)c1ccc(C)cc1)[C@@H]1OC(C)(C)O[C@@H]1[C@H]1COC(C)(C)O1 (stereo partly drawn) , give its measured TGI value.
> 48.3 µM

Tell me its TGI given Nc1ccc(/C=C/c2ccnc3ccccc23)cc1 as the entry.
79.3 µM

Look up and report measured TGI for this entry: C[C@]12CCC(O)CC1=CC[C@@H]1[C@@H]2CC[C@]2(C)C(O)[C@H](n3ccnc3)C[C@@H]12 (stereo partly drawn)
> 100 µM

Read the entry Cc1ccccc1N(CCC#N)C1=NN(C(=O)CC(=O)Nc2ccccc2)C(c2ccccc2)C1 (stereo not drawn) and write its reported TGI.
> 100 µM

Give me measured TGI, please, for this compound: CC[O-].CC[O-].O=C1c2ccccc2C(=O)c2c(O)ccc([O-])c21.O=C1c2ccccc2C(=O)c2c(O)ccc([O-])c21.[Ti+4]
> 100 µM

Annotate the compound CC(=O)Nc1ccc(-c2nc3ccccc3s2)cc1Br with its measured TGI.
> 93.4 µM

Provide one value: measured TGI of O=[N+]([O-])/C(C(Cl)=C(Cl)Cl)=C1\Nc2ccc([N+](=O)[O-])cc2N1
> 100 µM

Complete the entry with TGI for O=C(CSc1ncccn1)N/N=C/c1ccccc1OCc1ccccc1
> 100 µM

====

Below: a set of entries, each annotated with reported TGI.
- Tested on: NCI-H522 lung
- assay-name: NCI tumour cell line growth inhibition, 48 h

# compound, experimental-target, property-label, result
measured = [
    ("CC(C)(C)OC(=O)Cc1ccc2c(ccn2Cc2ccccc2)c1", "NCI-H522 lung", "TGI", "> 100 µM"),
]

Give the value of TGI reported for the following: CC(NC(=O)OCc1ccccc1)NC(=O)OC(C)(C)C (stereo not drawn)
> 100 µM

Answer with the recorded TGI for the compound listed here: CCOC(=O)C1(CO)CSCCSC1
> 100 µM

====

Catalogue of compounds with associated TGI
- Test system: NCI-H226 lung
- assay-name: NCI tumour cell line growth inhibition, 48 h

# compound, TGI
measured = [
    ("CCOC(=O)/C(C#N)=C/Nc1c(C)n(C)n(-c2ccccc2)c1=O", "> 100 µM"),
    ("[O-][n+]1nc(N2CCOCC2)nc2ccccc21", "> 100 µM"),
]

Please give measured TGI of the following entry: COC(=O)/C(C)=N/NC(=S)SC
> 100 µM

Report TGI for NC1=NN(c2ccccc2)C(=O)C1C(=O)CCC(=O)Nc1cccc(C(F)(F)F)c1 (stereo not drawn)
> 100 µM

Return reported TGI. Input compound: O=C(N/N=C/c1cccc(O)c1O)c1ccccc1
> 30.2 µM
